- Measurement Notes: Mice pharmacokinetic evaluation (LC-MS/MS of plasma)
- Format: in vivo, ICR mice
- Assay Context: male, ICR, mouse, plasma, iv, 1 mg/kg, intravenous 1.0 mg/kg, 1.0 h, Mean; read-out: Plasma concentration of active compound
Reported Property: concentration at 1 h (ng/mL)
Field: numeric (ng/mL). Do not append units.

Req: Recorded concentration at 1 h of CSc1nccc(N2CCC(N(C)Cc3ccc(C#N)cc3)CC2)n1 [Example 36] , please.
Resp: 7.02

###

- Measurement Notes: Mice pharmacokinetic evaluation (LC-MS/MS of plasma)
- Type: in vivo, ICR mice
- Assay Context: male, ICR, mouse, plasma, po, 10 mg/kg, oral 10 mg/kg, 2.0 h, Mean; read-out: Plasma concentration of active compound
Reported Property: concentration at 2 h (µg/mL)
Express the result in µg/mL but write the number alone.

Req: Please look up its concentration at 2 h: CSc1nccc(N2CCC(N(C)Cc3ccc(C#N)cc3)CC2)n1 [Example 36]
Resp: 0.0235

###

- Measurement Notes: Mice pharmacokinetic evaluation (LC-MS/MS of plasma)
- Assay type: in vivo, ICR mice
- Assay Context: male, ICR, mouse, plasma, iv, 1 mg/kg, IV 1.0 mg/kg, individual mice 4-6
Reported Property: AUC(0-t) (ng·h/mL)
# number only, unit ng·h/mL dropped from output

Req: Sample CSc1nccc(N2CCC(N(C)Cc3ccc(C#N)cc3)CC2)n1 — what was its AUC(0-t)?
Resp: 56.4

###

- Tested on: BT/Lap^R1.0
- Measurement Notes: Antitumor bioactivity evaluation, breast cancer cells (ATPlite)
- Assay type: cell-based, human
- Assay Context: Homo sapiens
Please assign no whenever IC50 is at or above 1000 nM, and yes whenever it is below.

Worked set:
Smiles	Target Of Assay	Class Assignment
CSc1nccc(N2CCC(N(C)Cc3ccccc3Cl)CC2)n1	BT/Lap^R1.0	no
CSc1nccc(N2CCC(N(C)Cc3c(F)cccc3Cl)CC2)n1	BT/Lap^R1.0	yes
CSc1nccc(N2CCC(N(C)Cc3ccc(C#N)cc3)CC2)n1	BT/Lap^R1.0	no

Req: Is IC50 strictly under 1000 nM for the entry CSc1nccc(N2CCC(N(C)Cc3ccc(Cl)cc3Cl)CC2)n1 ?
Resp: no

Req: Same for CSc1nccc(N2CCC(N(C)Cc3c(Cl)cccc3Cl)CC2)n1
Resp: yes

###

- Measurement Notes: Mice pharmacokinetic evaluation (LC-MS/MS of plasma)
- Format: in vivo, ICR mice
- Assay Context: male, ICR, mouse, plasma, po, 10 mg/kg, oral 10 mg/kg, 6.0 h, Mean; read-out: Plasma concentration of active compound
Reported Property: concentration at 6 h (ng/mL)
Dear colleague, please return just the value in ng/mL, with no unit written.

Req: Record request: concentration at 6 h value, item CSc1nccc(N2CCC(N(C)Cc3ccc(C#N)cc3)CC2)n1 [Example 36]
Resp: 7.36

###

- Measurement Notes: Mice pharmacokinetic evaluation (LC-MS/MS of plasma)
- Format: in vivo, ICR mice
- Assay Context: male, ICR, mouse, plasma, po, 10 mg/kg, oral 10 mg/kg, 0.08 h, Mean; read-out: Plasma concentration of active compound
Reported Property: concentration at 0.08 h (ng/mL)
Numeric answer only, unit ng/mL assumed.

Req: Look up concentration at 0.08 h: CSc1nccc(N2CCC(N(C)Cc3ccc(C#N)cc3)CC2)n1 [Example 36]
Resp: 141

###

- Tested on: MIA-PaCa-2
- Measurement Notes: Extended test against tumor cell lines (ATPlite)
- Assay type: cell-based
- Assay Context: MIA-PaCa-2 (pancreatic cancer), 1 μM, 72 hours
Reported Property: Survival rate (%)
Answer format: numeric, % implied, no suffix.

Example entries begin here.
Smiles	Survival rate / %
CSc1nccc(N2CCC(N(C)Cc3ccc(Cl)cc3Cl)CC2)n1	77.3
CSc1nccc(N2CCC(N(C)Cc3ccccc3Cl)CC2)n1	88.5
CSc1nccc(N2CCC(N(C)Cc3ccc(C#N)cc3)CC2)n1	66.0
CSc1nccc(N2CCC(N(C)Cc3c(Cl)cccc3Cl)CC2)n1	33.1

With those in mind, consider the next compound.
Req: Would you kindly share the measured Survival rate for CSc1nccc(N2CCC(N(C)Cc3c(F)cccc3Cl)CC2)n1 ?
Resp: 61.9

###

- Measurement Notes: Mice pharmacokinetic evaluation (LC-MS/MS of plasma)
- Type: in vivo, ICR mice
- Assay Context: male, ICR, mouse, plasma, oral, 10 mg/kg, Po 10 mg/kg vs IV 1.0 mg/kg, Mean ± SD, n = 3; read-out: F (absolute bioavailability)
Reported Property: bioavailability (%)
Give a bare numeral; the unit % is implied.

Req: Quick one: bioavailability for CSc1nccc(N2CCC(N(C)Cc3ccc(C#N)cc3)CC2)n1 ?
Resp: 55.5

###

- Measurement Notes: Mice pharmacokinetic evaluation (LC-MS/MS of plasma)
- Format: in vivo, ICR mice
- Assay Context: male, ICR, mouse, plasma, po, 10 mg/kg, oral 10 mg/kg, 1.0 h, Mean; read-out: Plasma concentration of active compound
- Description: Mice pharmacokinetic evaluation of the compound of Example 36 according to the method described below ICR mice, SPS grade, male, weighed […], license number SCXK (Beijing) 2012-0001, purchased from Beijing Vital River Laboratory Animal Technology Co. Ltd. […] Pharmacokinetic parameters were calculated using non-compartment model of Winnonlin® software (Version 5.2.1, USA). […] Bioavailability is calculated as follows: […]
Reported Property: concentration at 1 h (ng/mL)
Write the answer as a number in ng/mL, unit excluded.

Req: So what's the measured concentration at 1 h for this one? CSc1nccc(N2CCC(N(C)Cc3ccc(C#N)cc3)CC2)n1
Resp: 147

###

- Tested on: BT474
- Measurement Notes: Antitumor bioactivity evaluation, breast cancer cells (ATPlite)
- Type: cell-based
- Assay Context: Homo sapiens, BT-474; test sample 5 μM, 72 hours; read-out: Inhibitory Rate % BT474
Catalogue of inhibition at 5 µM readings, one per entry.

Compound	inhibition at 5 µM
COc1cc(N2CCC(N(C)Cc3c(F)cccc3Cl)CC2)ncn1 [Example 64]	45.9%

Req: Entry CSc1ncc(CN2CCC(N(C)Cc3ccc(F)cc3)CC2)s1 [Example 29] has what inhibition at 5 µM?
Resp: 54.4%

Req: How about this compound: COc1nccc(N2CCC(N(C)Cc3ccc(C)cc3)CC2)n1 [Example 51]
Resp: 65.6%

###

The following compounds are shown together with reported pIC50 values.
- Test system: BT474
- Measurement Notes: Antitumor bioactivity evaluation, breast cancer cells (ATPlite)
- Assay type: cell-based
- Assay Context: Homo sapiens, BT-474
Keep it numeric: pIC50 is minus log10 of the concentration in mol/L.

Answered examples (4):
Smiles	Target Of Assay	pIC50
CSc1nccc(N2CCC(N(C)Cc3c(Cl)cccc3Cl)CC2)n1	BT474	6.11
CSc1nccc(N2CCC(N(C)Cc3ccccc3Cl)CC2)n1	BT474	5.70
CSc1nccc(N2CCC(N(C)Cc3ccc(Cl)cc3Cl)CC2)n1	BT474	5.79
CSc1nccc(N2CCC(N(C)Cc3c(F)cccc3Cl)CC2)n1	BT474	5.98

Could you now look at the following compound, please?
Req: Look up pIC50: CSc1nccc(N2CCC(N(C)Cc3ccc(C#N)cc3)CC2)n1
Resp: 5.85

###

- System: Huh-7
- Measurement Notes: Extended test against tumor cell lines (ATPlite)
- Format: cell-based
- Assay Context: Huh-7 (liver cancer), 1 μM, 72 hours
Please note: Survival rate exactly at 50% is not satisfied. Only values below 50% get satisfied.

As a guide, the following entries are already answered.
Compound	Class Assignment
CSc1nccc(N2CCC(N(C)Cc3c(Cl)cccc3Cl)CC2)n1 [Example 49]	satisfied
CSc1nccc(N2CCC(N(C)Cc3ccccc3Cl)CC2)n1 [Example 47]	not satisfied
CSc1nccc(N2CCC(N(C)Cc3ccc(Cl)cc3Cl)CC2)n1 [Example 40]	not satisfied
CSc1nccc(N2CCC(N(C)Cc3ccc(C#N)cc3)CC2)n1 [Example 36]	not satisfied

Shift focus to the following entry.
Req: Just wondering, is Survival rate of CSc1nccc(N2CCC(N(C)Cc3c(F)cccc3Cl)CC2)n1 [Example 37] below 50%?
Resp: satisfied

###

- Measurement Notes: Mice pharmacokinetic evaluation (LC-MS/MS of plasma)
- Type: in vivo, ICR mice
- Assay Context: male, ICR, mouse, plasma, iv, 1 mg/kg, intravenous 1.0 mg/kg, 6.0 h, individual mice 4-6; read-out: Plasma concentration of active compound
Reported Property: concentration at 6 h (ng/mL)
Record the value in ng/mL, omitting the unit from your answer.

Req: // concentration at 6 h lookup, key: CSc1nccc(N2CCC(N(C)Cc3ccc(C#N)cc3)CC2)n1
Resp: 7.53

###

- Measurement Notes: Mice pharmacokinetic evaluation (LC-MS/MS of plasma)
- Format: in vivo, ICR mice
- Assay Context: male, ICR, mouse, plasma, po, 10 mg/kg, Po 10 mg/kg, Mean ± SD, n = 3; read-out: MRT0-∞
Reported Property: MRT inf (h)
Your answer is read as h, so omit the unit and give the number.

Req: Would you kindly share the measured MRT inf for CSc1nccc(N2CCC(N(C)Cc3ccc(C#N)cc3)CC2)n1 [Example 36] ?
Resp: 1.95
